Consider the following compounds; for each one, report its %Inh.
test system: NEK11; settings: concentration: 1 μM, replicates: in singlicate; n = 1;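 further: KINOMEscan kinase panel screen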
Answers are plain numbers, in %.

For orientation, consider the following solved cases.
[[record]]
compound = "CCn1cnc2c(NCc3ccccc3)ncnc21 [SKF-96418]"
recorded_measurement = 0

[[record]]
compound = "COc1cccc(C2=C(Nc3cccc(O)c3)C(=O)NC2=O)c1 [SB-390771]"
recorded_measurement = 0

[[record]]
compound = "NCCC(NC(=O)c1cc(Br)c(-c2ccnc3[nH]ccc23)s1)c1ccccc1.O=C(O)C(F)(F)F.O=C(O)C(F)(F)F (stereo not shown) [GSK1307810]"
recorded_measurement = 30

[[record]]
compound = "CN(C)CCNS(=O)(=O)c1ccc(-c2ccnc3[nH]ccc23)cc1 [GSK977620]"
recorded_measurement = 0

[[record]]
compound = "COc1ccc(NC(=O)c2ccoc2)cc1-c1ccc(C(=O)NCC2CC2)cc1 [GW810437]"
recorded_measurement = 0


Go through the items and report each one's %Inh.
1. CC(C)(C)c1ccc(C(=O)Nc2cn3cc(-n4ccnc4)ccc3n2)cc1
2. CCNC(=O)/C=C/c1n[nH]c2cc(Sc3ccccc3C(=O)NC)ccc12
3. Cn1cc(-c2ccc3c(c2)CCN3C(=O)Cc2cc(F)cc(C(F)(F)F)c2)c2c(N)ncnc21 [GSK2635225]
4. N#Cc1cnc2cc(-c3cnc(CNCCN4CCOCC4)s3)ccc2c1Nc1ccc(Oc2ccccc2)cc1 [GW664114]
5. COc1cccc2c(-c3ccncc3)c(-c3ccc(F)cc3)nn12 [GW468513]
6. COc1cc(Nc2nccc(N3CCC(NS(=O)(=O)c4ccc(NC(C)=O)cc4)CC3)n2)cc(OC)c1OC [GSK1379825]
7. Cc1ccc(Nc2ccnc(Nc3ccc(C)c(F)c3)n2)cc1O.Cl [GW582868]
8. CN(c1ccc(F)c(NC(=O)c2cccc(OC(C)(C)C#N)c2Cl)c1)c1ccc2nc(NC(=O)C3CC3)sc2n1

[0, 0, 8, 25, 0, 0, 3, 0]

Go through the items and report each one's %Inh.
1. Nc1ncc(-c2ccc3nccc(-c4ccncc4)c3c2)cc1S(=O)(=O)N1CCCCC1 [GSK1693850]
2. CCNc1nccc(-c2c(-c3ccc(F)cc3)ncn2C2CCN(C)CC2)n1
3. COC(=O)Nc1nc2cc(Oc3ccc(NC(=O)Nc4cccc(SC)c4)cc3)ccc2[nH]1.Cl [GW697999]

[0, 0, 22]

====

system: VEGFR2; construct: gene KDR; settings: concentration: 1 μM, replicates: in singlicate; n = 1
READOUT_TYPE: %Inh (%)
Numbers only, in %.

For orientation, consider the following solved cases.
[[record]]
molecule = "CN(c1ccc(NC(=O)N2CCN(CCCN3CCOCC3)CC2)cc1)c1ccnc(Nc2ccc(CS(C)(=O)=O)cc2)n1.Cl"
readout_type = "%Inh"
units = "%"
recorded_measurement = 52

[[record]]
molecule = "Cc1ccc(Nc2ccnc(Nc3ccc(C)c(F)c3)n2)cc1O.Cl"
readout_type = "%Inh"
units = "%"
recorded_measurement = 0

[[record]]
molecule = "CSc1ccc(NC2=C(c3ccc(Cl)cc3)C(=O)NC2=O)cc1"
readout_type = "%Inh"
units = "%"
recorded_measurement = 0

[[record]]
molecule = "Cc1cc(-c2ccnc(Nc3cccc(C#N)c3)n2)cc(C)c1O"
readout_type = "%Inh"
units = "%"
recorded_measurement = 6

[[record]]
molecule = "Cc1ccc(-c2ccc3occ(-c4ccc(S(C)=O)cc4)c3c2)nn1 (stereo not drawn)"
readout_type = "%Inh"
units = "%"
recorded_measurement = 0

[[record]]
molecule = "O=C(Nc1n[nH]c2nc(-c3cccc(O)c3)ccc12)C1CC1"
readout_type = "%Inh"
units = "%"
recorded_measurement = 16

[[record]]
molecule = "O=C(Nc1c(F)cccc1F)c1cc(C(=O)c2ccccc2F)c[nH]1"
readout_type = "%Inh"
units = "%"
recorded_measurement = 0

[[record]]
molecule = "O=C1NC(=O)C(c2ccccc2Cl)=C1Nc1cccc(Cl)c1"
readout_type = "%Inh"
units = "%"
recorded_measurement = 0


Go through the items and report each one's %Inh.
1. Cn1cc(-c2cnc(N)c3c(-c4ccc5c(c4)CCN5C(=O)Cc4ccccc4)csc23)cn1
2. CN1CCN(Cc2ccc(NC(=O)Nc3ccc(N(C)c4ccnc(Nc5ccc(CS(C)(=O)=O)cc5)n4)cc3)cc2)CC1.Cl

1. 65
2. 99.9

Go through the items and report each one's %Inh.
1. N#Cc1cnc2cc(-c3cnc(CNCCN4CCOCC4)s3)ccc2c1Nc1ccc(Oc2ccccc2)cc1
2. COc1cc(Nc2ccnc3cc(-c4ccncc4)ccc23)cc(OC)c1OC.Cl
3. CC(C)NCC(Cc1ccccc1)NC(=O)c1cc(Br)c(-c2ccnc3[nH]ccc23)s1.Cl.Cl (stereo not drawn)

[12, 0, 33]

Go through the items and report each one's %Inh.
1. O=C(O)C(F)(F)F.O=c1[nH]ccc2nc(N[C@@H]3CCNC3)nc(Nc3ccc4c(c3)S(=O)(=O)CC4)c12
2. Cc1nn2c(=O)cc(N3CCO[C@H](C)C3)nc2n1Cc1cccc(Cl)c1Cl
3. N#CC1(c2cccc(C(=O)Nc3cccc(Oc4ccc5nc(NC(=O)C6CC6)sc5n4)c3)c2)CC1

[36, 0, 99.7]

Go through the items and report each one's %Inh.
1. Cc1ccc(O)cc1Nc1ccnc2cc(-c3ccc(CN4CCCCC4)o3)ccc12
2. COC(=O)Nc1nc2ccc(Oc3ccc(NC(=O)Nc4cc(C(F)(F)F)ccc4F)cc3)cc2[nH]1.Cl

1. 93.6
2. 92.3

====

tested on: PDGFRB; conditions: concentration: 1 μM, replicates: in singlicate; n = 1
READOUT_TYPE: %Inh (%)
Answers are plain numbers, in %.

[[record]]
molecule = "COc1cc(Nc2nccc(N3CCC(NC(=O)Nc4ccc5c(c4)OCO5)C3)n2)cc(OC)c1OC (stereo not drawn)"
experimental_system = "PDGFRB"
readout_type = "%Inh"
units = "%"
recorded_measurement = 60

[[record]]
molecule = "Fc1cc(Cl)ccc1Nc1ccnc2cc(-c3ccc(CN4CCSCC4)o3)ccc12"
experimental_system = "PDGFRB"
readout_type = "%Inh"
units = "%"
recorded_measurement = 100

[[record]]
molecule = "Cc1nn2c(=O)cc(N3CCO[C@H](C)C3)nc2n1Cc1cccc(Cl)c1Cl"
experimental_system = "PDGFRB"
readout_type = "%Inh"
units = "%"
recorded_measurement = 65

[[record]]
molecule = "O=C(Nc1n[nH]c2cc(-c3cccs3)ccc12)C1CC1"
experimental_system = "PDGFRB"
readout_type = "%Inh"
units = "%"
recorded_measurement = 83

[[record]]
molecule = "c1ccc(Oc2ccc(Nc3ccnc4cc(-c5ccc(CN6CCCCC6)o5)ccc34)cc2)nc1"
experimental_system = "PDGFRB"
readout_type = "%Inh"
units = "%"
recorded_measurement = 98.6


Go through the items and report each one's %Inh.
1. COc1ccc(NC(=O)c2ccoc2)cc1-c1ccc(C(=O)NCC2CC2)cc1
2. Cc1cc(-c2ccnc(Nc3cccc(C#N)c3)n2)cc(C)c1O
3. Cn1cc(-c2cnc(N)c3c(-c4ccc5c(c4)CCN5C(=O)Cc4ccccc4)csc23)cn1
4. CNc1nccc(-c2ccc3c(N)n[nH]c3c2)n1

4
60
100
77

====

tested on: EPHA5; details: concentration: 1 μM, replicates: in singlicate; n = 1
READOUT_TYPE: %Inh (%)
Answers are plain numbers, in %.

[[record]]
compound = "Cc1cccc(Nc2nc(N[C@H]3CCCC[C@H]3N)ncc2C(N)=O)c1.Cl"
experimental_system = "EPHA5"
readout_type = "%Inh"
units = "%"
recorded_measurement = 2

[[record]]
compound = "Cc1ccc(-c2ccc3occ(-c4ccc(S(C)=O)cc4)c3c2)nn1 (stereo not drawn)"
experimental_system = "EPHA5"
readout_type = "%Inh"
units = "%"
recorded_measurement = 0


State, for EPHA5, measured %Inh of the compound listed here: Cc1ccc(NC(=O)c2ccc(Cl)c(Cl)c2)cc1-c1ccc(C(=O)Nc2ccncc2)cc1 12

====

test system: CDK9; conditions: concentration: 1 μM, replicates: in singlicate; n = 1
READOUT_TYPE: %Inh (%)
Answers are plain numbers, in %.

For orientation, consider the following solved cases.
[[record]]
smiles_representation = "COc1ccc(C2=C(Nc3cccc(O)c3)C(=O)NC2=O)cc1"
units = "%"
recorded_measurement = 0

[[record]]
smiles_representation = "CCn1cnc2c(NCc3ccccc3)ncnc21"
units = "%"
recorded_measurement = 20

[[record]]
smiles_representation = "Fc1cc(Cl)ccc1Nc1ccnc2cc(-c3ccc(CN4CCSCC4)o3)ccc12"
units = "%"
recorded_measurement = 0

[[record]]
smiles_representation = "N#CC1(c2cccc(C(=O)Nc3cccc(Oc4ccc5nc(NC(=O)C6CC6)sc5n4)c3)c2)CC1"
units = "%"
recorded_measurement = 0


Would you kindly look at the next entry?
State, for CDK9, measured %Inh of the compound listed here: c1ccc(Oc2ccc(Nc3ccnc4cc(-c5ccc(CN6CCCCC6)o5)ccc34)cc2)nc1 0

Data origin: paper PMC5540273
